FYI, the data here is from PubChem BioAssay (NCI).

- Test system: RXF 393 renal
- ASSAY PROCEDURE: NCI-60 one-dose screen, 48 h
- CONDITION PARAMETERS: 10 µM unless noted
The panel holds about 83,000 compounds, 20% with a hit somewhere; the sample as a whole holds those more often. The source made the active and inactive calls. How the source made its calls: active means growth percent below 10; inactive means the rest.
// one of y = active, n = inactive, no free text

Solved cases (3 shown):
CN1CCN(Cc2ccc(NC(=O)c3cncc(C#Cc4cnc(N)c5ccc(F)cc45)c3)cc2C(F)(F)F)CC1
y
Nc1nc(N)c2c(n1)NC(c1cccc(Nc3ccnc4cc(C(F)(F)F)ccc34)c1)CC(c1ccc(Br)cc1)=N2 (centres undefined)
n
Cc1c(Cl)cccc1C(=O)Nc1nc2c(s1)CN(C(=O)c1ccc(C(F)(F)F)cc1)CC2
n

Let's switch to this molecule now.
**Q:** // outcome(item) with item = NC1(CO)COC(c2ccccc2)OC1 (centres undefined)
**A:** n

====

- Tested on: SK-MEL-5 melanoma
- ASSAY PROCEDURE: NCI-60 one-dose screen, 48 h
- CONDITION PARAMETERS: 10 µM unless noted
The panel holds about 83,000 compounds, 20% with a hit somewhere; the sample as a whole holds those more often. Activity calls are given as the source filed them. The calls were made as follows: active = growth percent below 10; inactive = the rest.
// one of TRUE = active, FALSE = inactive, no free text

Solved cases (5 shown):
O=C(Oc1ccc(CCl)cc1)c1ccccc1
TRUE
Cc1c2cccnc2c(C)c2c1c1cc(CO)ccc1n2C
FALSE
O=C1Nc2ccccc2C1(c1c[nH]c2ccccc12)c1c[nH]c2ccccc12
FALSE
CNC1=C([N+](=O)[O-])C(c2ccc(OC)cc2)C(C#N)=C(c2cccs2)O1 (stereo not given)
FALSE
COc1cccc(/C=C/C(=O)c2cc3c(N)c(C(=O)Nc4cccc5ccccc45)sc3nc2C)c1
TRUE

**Q:** // outcome(item) with item = O=C1NC(=O)/C(=C/c2c(-c3ccccc3)nc3sc(COc4ccccc4)nn23)S1
**A:** FALSE

**Q:** // outcome(item) with item = Cc1nc2c(=O)nc3s/c(=C\c4ccco4)c(=O)n3c2nc1C
**A:** FALSE

**Q:** // outcome(item) with item = COc1ccc(C(=O)Cn2c(C(=O)c3ccc(OC)cc3)nc3ccccc32)cc1
**A:** FALSE

**Q:** // outcome(item) with item = C=C1C(=O)O[C@H]2[C@H]1CC/C(CNC(=O)c1c[nH]c3ccc(F)cc13)=C\CC[C@@]1(C)O[C@@H]21
**A:** FALSE

**Q:** // outcome(item) with item = Cc1ccc(C2CC(c3nc(-c4ccc(Cl)cc4)oc3C)=NN2C(=O)c2ccncc2)cc1 (stereo not given)
**A:** FALSE

====

- Test system: U251 CNS
- ASSAY PROCEDURE: NCI-60 one-dose screen, 48 h (100 = growth as untreated, 0 = no growth, -100 = all killed)
- CONDITION PARAMETERS: 10 µM unless noted
- Experimental: Growth inhibition of the U251 human tumor cell line is measured as a screen for anti-cancer activity. Cells are grown in 96 well plates and exposed to the test compound for 48 hours. Compounds are tested at a single concentration, which is 10^-5 M for most compounds. The reported endpoint is percent growth (GI% or GIPRCNT), where numbers from 0 - 100% represent growth inhibition, and numbers from -100% - 0 represent cell death. For example, a value of 40 represents 60% growth inhibition. […]
This is part of a sample that, as a whole, favours compounds with a hit. Of some 83,000 tested, about 20% had one in any assay.
# thresholds on growth define classes: A: < 10%; B: ≥ 10% and < 60%; C: ≥ 60%

Nc1ccc(-c2csc(-n3[nH]c(=O)ccc3=O)n2)cc1
C
CCCCNC(=O)Oc1ccc(/C(=C(/C)Cc2ccc(OC)cc2)c2ccc(OCCN3CCCCCC3)cc2)cc1
C
NC(=O)c1cccc([C@@H]2O[C@H](CO)[C@@H](O)[C@H]2O)c1
B
Cc1ccc(NC(=O)Cn2c(Br)nc3c2c(=O)n(C)c(=O)n3C)cc1
A
Cn1cc(-c2ccc(-c3cn(C)c4ccc(Cl)cc34)[nH]2)c2cc(Cl)ccc21
A
CC(C)(C)n1cc(-c2ccnc(NCCCNS(=O)(=O)c3cccc4ccccc34)c2)c(-c2cccc(F)c2)n1
C
COc1ccc(/C=C/C(=O)c2cc(OC)c(OC)c(OC)c2)cc1OCC(=O)Nc1nc2ccc(OC(F)(F)F)cc2s1
A
Cc1[nH]c(C2CC(c3ccc(C(F)(F)F)c(F)c3)=NN2c2ccccc2)c(C)c1C(=O)NCC(F)(F)F (stereo not drawn)
C
C=C(C)[C@@H]1CC[C@]2(C(=O)N3CCN(C)CC3)CC[C@]3(C)[C@H](CC[C@@H]4[C@@]5(C)CC[C@H](OC(=O)c6ccccc6C(=O)O)C(C)(C)[C@@H]5CC[C@]43C)[C@@H]12
C
Nc1nc(N)c2c(n1)NC(c1cccc(Nc3ccnc4cc(C(F)(F)F)ccc34)c1)CC(c1ccc(Br)cc1)=N2 (stereo not drawn)
B

**Q:** Determine which band this compound sits in: O=S1(=O)C=C(c2ccccc2)C(c2ccccc2)=C1
**A:** B

**Q:** Determine which band this compound sits in: COc1ccc(Oc2nc(Nc3ccc(N4CCOCC4)cc3)ncc2NC(=O)Nc2cc(OC)cc(OC)c2)cc1
**A:** A

**Q:** Determine which band this compound sits in: Cc1ccc(-c2nc(/C=C3/C(=O)Nc4ccc(F)cc43)c3ccccn23)cc1
**A:** C

====

Catalogue of growth values
- Test system: NCI-H23 lung
- ASSAY PROCEDURE: NCI-60 one-dose screen, 48 h (100 = growth as untreated, 0 = no growth, -100 = all killed)
- CONDITION PARAMETERS: 10 µM unless noted
About 83,000 compounds went through this panel and 20% of them were active in at least one assay; those are over-represented in the sample as a whole.
Just the number please, in %, no unit attached.

CO[C@H](C(=O)[C@@H](O)[C@@H](C)O)[C@@H]1Cc2cc3cc(O[C@H]4C[C@@H](O[C@H]5C[C@@H](O)[C@H](O)C(C)O5)[C@H](O)C(C)(O)O4)cc(O)c3c(O)c2C(=O)[C@H]1O[C@H]1C[C@@H](O[C@H]2C[C@@H](O[C@H]3C[C@@H](OC)[C@H](O)C(C)O3)[C@@H](O)C(C)O2)[C@H](O)C(C)O1 (some centres not stated)
16.4
CCOC(=O)C(=CNc1cnc(Nc2ccc(N3CCOCC3)cc2)nc1Oc1ccc(OC)cc1)C(=O)OCC
68.4
COc1ccc(CCN2C(=O)/C(=C/c3ccc(C4Oc5ccccc5C5CC(c6ccccc6)=NN54)cc3)SC2=S)cc1 (configuration not stated)
100
O=C(C1=Cc2cc3ccccc3n2Cc2cnnn21)c1ccc(O)cc1
75.6
CCN1C(=O)N(CC)C2C1NN=c1s/c(=C\c3ccc[nH]3)c(=O)n12 (configuration not stated)
42.9

**Q:** Please give the measured growth for this compound: CN(C)c1ccc(-c2nc(-c3ccccc3)c(-c3ccccc3)[nH]2)cc1
**A:** 92.2

**Q:** Please give the measured growth for this compound: CN1CCN(C(=O)C(C)(C)c2ccc(C(=O)Nc3cn4cc(-c5ccncc5)ccc4n3)cc2)CC1
**A:** 10.1

====

- Tested on: RXF 393 renal
- ASSAY PROCEDURE: NCI-60 one-dose screen, 48 h (100 = growth as untreated, 0 = no growth, -100 = all killed)
- CONDITION PARAMETERS: 10 µM unless noted
Compounds without any hit were thinned out: in the full panel of roughly 83,000, 20% have a hit. The source made the active and inactive calls. The calls were made as follows: active = growth percent below 10; inactive = the rest.
MEASURE: growth

C#COc1cccc(Nc2ncnc3cc(NC(=O)[C@@H](C)Cl)ccc23)c1
7.55% [6.25 µM] (active)
O=[N+]([O-])c1ccc(-c2cn3nc(-c4c[nH]c5ccccc45)sc3n2)cc1
108% (inactive)
O=C(Cc1cccc(OC(F)(F)F)c1)Nc1ccc(CCCCc2nnc(NC(=O)Cc3ccccn3)s2)nn1
52.1% (inactive)

**Q:** Please give the measured growth for this molecule: COc1ccc(C[n+]2c3ccccc3n3c4ccc(N)cc4ccc32)c(OC)c1OC
**A:** 69.7% (inactive)

====

- Test system: BT-549 breast
- ASSAY PROCEDURE: NCI-60 one-dose screen, 48 h
- CONDITION PARAMETERS: 10 µM unless noted
About 83,000 compounds went through this panel and 20% of them were active in at least one assay; those are over-represented in the sample as a whole. The source made the active and inactive calls. Rule for the calls: active = growth percent below 10; inactive = the rest.
// one of active, inactive, no free text

CCNC(=O)Oc1ccc(/C(=C(/CC)Cc2ccccc2)c2ccc(OCCN3CCCC3)cc2)cc1
inactive
O=C1Nc2ccccc2C1(c1c[nH]c2ccccc12)c1c[nH]c2ccccc12
active
CN(CCCNC(=O)CCOCCOCCOCCNC(=O)Cc1ccc2ccc3cccc4ccc1c2c34)CCCNc1cc(-c2ccc3ccccc3c2)nc2ccccc12
active
Cc1ccc(C(=O)c2ccc(CC(=O)NN3C(=O)c4ccccc4C3=O)n2C)cc1
inactive
O=C(CCCCCCN1CC(=O)N2[C@H](c3ccc(Br)cc3)c3[nH]c4ccccc4c3C[C@@H]2C1=O)NO
inactive

Let's switch to this compound now.
**Q:** // outcome(item) with item = CCOC(=O)c1[nH]c2c(c1C)-c1[nH]c(=O)c(S(=O)(=O)c3ccccc3)cc1SC2
**A:** inactive
